Recorded IC50 values for a group of compounds are listed next.
tested on: pancreatic cancer PANC-1 cells; test: Cell proliferation assay (CCK-8); assay type: cell-based; details: Homo sapiens, PANC-1, 72 h

Q. Give recorded IC50. C[C@H]1CCC/C=C/[C@@H]2C[C@H](OC(=O)/C=C/c3cnc4ccccc4c3)C[C@H]2[C@H](OC(=O)/C=C/c2cnc3ccccc3c2)/C=C/C(=O)O1 [Compound 17c]
A. 100 to 1000 nM

Q. Give recorded IC50. C[C@H]1CCC/C=C/[C@@H]2C[C@H](O)C[C@H]2[C@H](OC(=O)/C=C/c2ccccc2Br)/C=C/C(=O)O1
A. 100 to 1000 nM

Q. Give recorded IC50. C[C@H]1CCC/C=C/[C@@H]2C[C@H](OC(=O)/C=C/c3ccc(N(C)C)cc3)C[C@H]2[C@H](O)/C=C/C(=O)O1 [Compound 10a]
A. 1000 to 10000 nM

All figures here come from patent US20220064138A1.
